All values here come from patent US20060057071A1.

testMethodNotes: 1H NMRD profiles (water proton relaxivity)
Format: physicochemical
assaySetup: 20 MHz, 25° C., pH 6.9
experimentalEndpoint: proton relaxivity r1 (r1p) (mM⁻¹ s⁻¹)

# molecule, unitTag, reportedResult
rows = [
    ("O=C([O-])CN1CCN(CCN2CCOCCOCCOCCOCC2)CCN(CC(=O)[O-])CCN(CC(=O)[O-])CC1.[Gd+3] [GdL1, Gd^3+ Complex of L1]", "mM⁻¹ s⁻¹", 9.65),
    ("O=C([O-])CN1CCNCCN(CC(=O)[O-])CCN(CC(=O)[O-])CC1.[Gd+3] [Gd-DO3A, reference compound]", "mM⁻¹ s⁻¹", 5.72),
    ("O=C([O-])CN1CCN(CCOCC2COCCOCCOCCOCCO2)CCN(CC(=O)[O-])CCN(CC(=O)[O-])CC1.[Gd+3] (stereo not shown) [GdL2, Gd^3+ complex of L2]", "mM⁻¹ s⁻¹", 9.36),
    ("O=C([O-])CN1CCN(CC(=O)[O-])CCN(CC(=O)O)CCN(CC(=O)[O-])CC1.[Gd+3] [Gd-DOTA, reference compound]", "mM⁻¹ s⁻¹", 4.74),
]

====

System: kidney cortex
testMethodNotes: In vivo MRI, renal intensity enhancement
Set-up: species or system rat
assaySetup: 0.1 mmol/kg (standard dosage), rat, first few minutes after administration
experimentalEndpoint: maximal renal intensity enhancement (IE) (%)

# compound, reportedResult
records = [
    ("O=C([O-])CN1CCN(CC(=O)[O-])CCN(CC(=O)N2CCOCCOCCN(Cc3ccc4ccccc4n3)CCOCCOCC2)CCN(CC(=O)[O-])CC1.[Gd+3]", 58),
    ("O=C([O-])CN1CCN(CCOCC2COCCOCCOCCOCCO2)CCN(CC(=O)[O-])CCN(CC(=O)[O-])CC1.[Gd+3] (stereo not shown)", 135),
    ("O=C([O-])CN1CCNCCN(CC(=O)[O-])CCN(CC(=O)[O-])CC1.[Gd+3] [Gd-DO3A, reference compound]", 140),
]

====

testMethodNotes: 1H NMRD profiles (water proton relaxivity)
Assay type: physicochemical
assaySetup: 25° C., pH 6.9, fits of NMRD profile and 17O NMR

# molecule, a (Å)
data = [
    ("O=C([O-])CN1CCN(CC(=O)[O-])CCN(CC(=O)N2CCOCCOCCN(Cc3ccc4ccccc4n3)CCOCCOCC2)CCN(CC(=O)[O-])CC1.[Gd+3]", 4.2),
    ("O=C([O-])CN(CCN(CC(=O)[O-])CC(=O)O)CCN(CC(=O)[O-])CC(=O)O.[Gd+3] [Gd-DTPA, reference compound]", 4.0),
    ("O=C([O-])CN1CCN(CC(=O)[O-])CCN(CC(=O)O)CCN(CC(=O)[O-])CC1.[Gd+3] [Gd-DOTA, reference compound]", 4.0),
]

====

testMethodNotes: Variable-temperature 17O NMR transverse relaxation rate
Assay type: physicochemical
assaySetup: 298 K (25° C.), 2.12 T
Measured exchange lifetime TM of inner-sphere coordinated water accompanies every entry in the list below.
experimentalEndpoint: exchange lifetime TM of inner-sphere coordinated water

# compound, reportedResult
rows = [
    ("O=C([O-])CN1CCNCCN(CC(=O)[O-])CCN(CC(=O)[O-])CC1.[Gd+3] [Gd-DO3A, reference compound]", "160 ns"),
    ("O=C([O-])CN1CCN(CCN2CCOCCOCCOCCOCC2)CCN(CC(=O)[O-])CCN(CC(=O)[O-])CC1.[Gd+3]", "55 ns"),
    ("O=C([O-])CN1CCN(CCOCC2COCCOCCOCCOCCO2)CCN(CC(=O)[O-])CCN(CC(=O)[O-])CC1.[Gd+3] (centres unmarked)", "116 ns"),
    ("O=C([O-])CN1CCN(CC(=O)[O-])CCN(CC(=O)O)CCN(CC(=O)[O-])CC1.[Gd+3] [Gd-DOTA, reference compound]", "245 ns"),
    ("O=C([O-])CN1CCN(CC(=O)[O-])CCN(CC(=O)N2CCOCCOCCN(Cc3ccc4ccccc4n3)CCOCCOCC2)CCN(CC(=O)[O-])CC1.[Gd+3]", "246 ns"),
]

====

testMethodNotes: 1H NMRD profiles (water proton relaxivity)
Format: physicochemical
assaySetup: 25° C., pH 6.9, fits of NMRD profile and 17O NMR

# molecule, Δ^2 [s⁻¹]
records = [
    ("O=C([O-])CN1CCN(CCN2CCOCCOCCOCCOCC2)CCN(CC(=O)[O-])CCN(CC(=O)[O-])CC1.[Gd+3] [GdL1, Gd^3+ Complex of L1]", "8e+19"),
    ("O=C([O-])CN1CCN(CC(=O)[O-])CCN(CC(=O)N2CCOCCOCCN(Cc3ccc4ccccc4n3)CCOCCOCC2)CCN(CC(=O)[O-])CC1.[Gd+3] [GdL3, Gd^3+ complex of L3]", "3e+19"),
    ("O=C([O-])CN1CCN(CCOCC2COCCOCCOCCOCCO2)CCN(CC(=O)[O-])CCN(CC(=O)[O-])CC1.[Gd+3] (stereo not drawn) [GdL2, Gd^3+ complex of L2]", "9e+19"),
    ("O=C([O-])CN(CCN(CC(=O)[O-])CC(=O)O)CCN(CC(=O)[O-])CC(=O)O.[Gd+3] [Gd-DTPA, reference compound]", "4.2e+19"),
    ("O=C([O-])CN1CCN(CC(=O)[O-])CCN(CC(=O)O)CCN(CC(=O)[O-])CC1.[Gd+3] [Gd-DOTA, reference compound]", "1.3e+19"),
    ("O=C([O-])CN1CCNCCN(CC(=O)[O-])CCN(CC(=O)[O-])CC1.[Gd+3] [Gd-DO3A, reference compound]", "4.6e+19"),
]

====

testMethodNotes: Luminescence lifetime measurements for inner-sphere water molecules q (Tb complexes)
Format: physicochemical
assaySetup: in H2O, pH 6.9 (0.1 M Tris/HCl), 298 K, ±10%
Param label: returns Met when kH2O, absolute emission depopulation rate constant < 0.7 ms^−1, returns Not met otherwise, including exact equality.

# molecule, cat
data = [
    ("O=C([O-])CN1CCN(CCOCC2COCCOCCOCCOCCO2)CCN(CC(=O)[O-])CCN(CC(=O)[O-])CC1.[Tb+3] (centres unmarked) [TbL2]", "Not met"),
    ("O=C([O-])CN1CCNCCN(CC(=O)[O-])CCN(CC(=O)[O-])CC1.[Tb+3] [Tb-DO3A, reference compound]", "Not met"),
    ("O=C([O-])CN1CCN(CC(=O)[O-])CCN(CC(=O)N2CCOCCOCCN(Cc3ccc4ccccc4n3)CCOCCOCC2)CCN(CC(=O)[O-])CC1.[Tb+3] [TbL3]", "Met"),
    ("O=C([O-])CN1CCN(CC(=O)[O-])CCN(CC(=O)[O-])CCN(CC(=O)[O-])CC1.[Tb+3] [Tb-DOTA, reference compound]", "Met"),
]

====

testMethodNotes: 1H NMRD profiles (water proton relaxivity)
Format: physicochemical
assaySetup: 25° C., pH 6.9, fits of NMRD profile and 17O NMR
A collection of compounds and their measured TV

# compound, TV, ps
data = [
    ("O=C([O-])CN1CCN(CCOCC2COCCOCCOCCOCCO2)CCN(CC(=O)[O-])CCN(CC(=O)[O-])CC1.[Gd+3] (stereo not drawn)", 13),
    ("O=C([O-])CN1CCNCCN(CC(=O)[O-])CCN(CC(=O)[O-])CC1.[Gd+3] [Gd-DO3A, reference compound]", 14),
    ("O=C([O-])CN1CCN(CC(=O)[O-])CCN(CC(=O)N2CCOCCOCCN(Cc3ccc4ccccc4n3)CCOCCOCC2)CCN(CC(=O)[O-])CC1.[Gd+3]", 21),
    ("O=C([O-])CN(CCN(CC(=O)[O-])CC(=O)O)CCN(CC(=O)[O-])CC(=O)O.[Gd+3] [Gd-DTPA, reference compound]", 20),
    ("O=C([O-])CN1CCN(CCN2CCOCCOCCOCCOCC2)CCN(CC(=O)[O-])CCN(CC(=O)[O-])CC1.[Gd+3]", 13),
    ("O=C([O-])CN1CCN(CC(=O)[O-])CCN(CC(=O)O)CCN(CC(=O)[O-])CC1.[Gd+3] [Gd-DOTA, reference compound]", 7.7),
]

====

testMethodNotes: 1H NMRD profiles (water proton relaxivity)
Type: physicochemical
assaySetup: 25° C., pH 6.9, fits of NMRD profile and 17O NMR
Text: Measuring the relaxation rates of an abundant nuclear species as a function of the magnetic field over a wide range is called relaxometry. A relaxometry profile is a plot of the nuclear magnetic relaxation rate, usually 1/T1, as a function of the Larmor frequency or the magnetic field. […] With the help of NMRD profiles, ^17O NMR measurements, and the Soloman-Bloemnergen-Morgan theory, several important parameters, such as TM, TR, TV, Δ^2 and rH, can be measured. […]

# compound, unitTag, r
rows = [
    ("O=C([O-])CN1CCN(CCN2CCOCCOCCOCCOCC2)CCN(CC(=O)[O-])CCN(CC(=O)[O-])CC1.[Gd+3]", "Å", 2.98),
    ("O=C([O-])CN1CCN(CC(=O)[O-])CCN(CC(=O)N2CCOCCOCCN(Cc3ccc4ccccc4n3)CCOCCOCC2)CCN(CC(=O)[O-])CC1.[Gd+3]", "Å", 3.03),
    ("O=C([O-])CN(CCN(CC(=O)[O-])CC(=O)O)CCN(CC(=O)[O-])CC(=O)O.[Gd+3] [Gd-DTPA, reference compound]", "Å", 3.1),
]
